Values were extracted from PubChem BioAssay (EPA / NIEHS).

Read-out: DNA damage-inducible transcript 3 (DDIT3), DDIT3 (gene 1649)
Test: LTEA_HepaRG_DDIT3: Life Technologies and Expression Analysis (LTEA) Assay for DNA damage-inducible transcript 3 (DDIT3) using HepaRG (AID 2283488)
Details: mRNA level, 48 h; actives raise or lower the signal
Calls of active or inactive are those of the source. Rule for the calls: active = hit-call score of the fitted dose curve at least 0.9, where 1 is the maximum; inactive = score below 0.9.
Hi there, use one of these labels in your reply, thanks! active, inactive

CCCCCCCCOC(=O)CCCCCCCCC(=O)OCCCCCCCC | inactive
CCC(=C(c1ccc(O)cc1)c1ccc(OCCN(C)C)cc1)c1ccccc1 | active
CCC(C)(C)C1CCC(O)CC1 (stereo not drawn) | inactive
CC#C[C@]1(O)CC[C@H]2[C@@H]3CCC4=CC(=O)CCC4=C3[C@@H](c3ccc(N(C)C)cc3)C[C@@]21C | active
OCCC(F)(F)C(F)(F)C(F)(F)C(F)(F)C(F)(F)C(F)(F)F | inactive
CCN(CC)CCNc1ccc(CNC=O)c2sc3ccc(OC)cc3c(=O)c12 | inactive
C=C(C)C(=O)OCCC(F)(F)C(F)(F)C(F)(F)C(F)(F)C(F)(F)C(F)(F)F | inactive
CN1CCN(c2ccccc2/C=C2\SCCN(c3ccc(Cl)c(Cl)c3)C2=O)CC1 | active
c1ccc2c(c1)Cc1ccccc1-2 | inactive
CN1CCC[C@H]1c1cccnc1 | inactive

For CCCCCCCC(=O)O , what call appears in the results of this test?
inactive

For Cc1oc(-c2ccccc2)nc1CCOc1ccc(C[C@H](Nc2ccccc2C(=O)c2ccccc2)C(=O)O)cc1 , what call appears in the results of this test?
active

For CCc1ccc(CCOc2ccc(CC3SC(=O)NC3=O)cc2)nc1 (stereo not drawn) , what call appears in the results of this test?
active

For COCC(C)O (stereo not drawn) , what call appears in the results of this test?
inactive

For CC1=C(/C=C/C(C)=C/C=C/C(C)=C/C(=O)O)C(C)(C)CCC1 , what call appears in the results of this test?
inactive

For Oc1cc2ccccc2c2ccccc12 , what call appears in the results of this test?
inactive

For CC(=O)NC1(c2cccc(F)c2)CCN(CC[C@@]2(c3ccc(Cl)c(Cl)c3)CN(c3ccccc3)C(=O)CO2)CC1 , what call appears in the results of this test?
active

For NC(=O)N1C(=O)C(C(=O)c2cc(Cl)cs2)c2cc(F)c(Cl)cc21 (stereo not drawn) , what call appears in the results of this test?
active

For CCCCCCCCCCCCN1CCCC1=O , what call appears in the results of this test?
inactive

For CCCOc1sc(C(=O)N2CCC(c3cc(CN)ccc3F)CC2)c(C)c1Br , what call appears in the results of this test?
inactive

For COC(=O)CCCCC(=O)OC , what call appears in the results of this test?
inactive

For CCCOC(=O)c1ccc(O)cc1 , what call appears in the results of this test?
inactive

For COc1ccc([N+](=O)[O-])cc1N , what call appears in the results of this test?
inactive
